Examples of molecules with documented inhibition at 3 µM follow.
System: collagen production induced by TGF-β (NHDF cells)
PROTOCOL_NOTES: Inhibitory effect on collagen production induced by TGF-β, [3H] proline uptake (NHDF cells)
Type: cell-based, human
CONDITION_SUMMARY: Homo sapiens, NHDF, 3 μM, TGF-β1 3 ng/ml
Where a name gives a salt, the structure may show the parent alone.
ENDPOINT_LABEL: inhibition at 3 µM (%)

molecule=COC(=O)c1ccc(-c2c(/C=C/C(=O)N3CCC(C(C)=O)(c4ccccc4)CC3)c3cc(C)ccc3n2C)cc1 endpoint_label="inhibition at 3 µM" endpoint_result=114
molecule="Cn1c(-c2ccccc2)c(/C=C/C(=O)NCC2CN(Cc3ccc(F)cc3)CCO2)c2ccccc21 (stereo not shown) [Example 30, hydrochloride]" endpoint_label="inhibition at 3 µM" endpoint_result=94
molecule="COc1cc2c(cc1OC)CN(C(=O)/C=C/c1c(-c3ccccc3)n(C)c3ncccc13)CC2 [Example 109, hydrochloride]" endpoint_label="inhibition at 3 µM" endpoint_result=76
molecule="COc1cccc(-c2c(/C=C/C(=O)N(C)CCC(O)c3ccccc3)c3ccccc3n2C)c1 (stereo not shown)" endpoint_label="inhibition at 3 µM" endpoint_result=81
molecule="COC(=O)CC1c2cc(OC)c(OC)cc2CCN1C(=O)/C=C/c1c(-c2ccccc2)n(C)c2ncccc12 (stereo not shown) [Example 133, hydrochloride]" endpoint_label="inhibition at 3 µM" endpoint_result=104
molecule="Cn1c(-c2ccccc2)c(/C=C/C(=O)N2CCC(n3c(=O)[nH]c4ccccc43)CC2)c2cccnc21 [Example 29, hydrochloride]" endpoint_label="inhibition at 3 µM" endpoint_result=72
molecule="COc1ccc(-c2c(/C=C/C(=O)N3CCc4cc(OC)c(OC)cc4C3)c3cccnc3n2C)cc1OC [Example 131, hydrochloride]" endpoint_label="inhibition at 3 µM" endpoint_result=141

* * *

PROTOCOL_NOTES: Measurement of concentration of compound in rat plasma
Format: in vivo
CONDITION_SUMMARY: oral 10 mg/kg, after 4 hours
Counter-ions that a name gives are not always drawn.
# concentration at 4 h per entry
ENDPOINT_LABEL: concentration at 4 h

compound=Cc1ccc2c(c1)c(C(=O)N1CCN(c3ccc(C(=O)NCCO)cn3)CC1)c(-c1ccccc1)n2C endpoint_result="750 to 940 ng/mL"
compound=Cc1ccc2c(c1)c(C(=O)N1CCN(c3ccc(-c4nnn(C)n4)cn3)CC1)c(-c1ccccc1)n2C endpoint_result="0 to 92 ng/mL"
compound=Cc1ccc2c(c1)c(C(=O)N1CCN(c3cnc(C(=O)NCCCn4ccnc4)cn3)CC1)c(-c1ccccc1)n2C endpoint_result="420 to 650 ng/mL"
compound="Cc1ccc2c(c1)c(C(=O)N1CCN(c3ccc(-c4nnn(CCO)n4)cn3)CC1)c(-c1ccccc1)n2C.Cl [Example 9, hydrochloride]" endpoint_result="350 to 530 ng/mL"
compound=CC(=O)Nc1cnc(N2CCN(C(=O)c3c(-c4ccccc4)n(C)c4ccc(C)cc34)CC2)cn1 endpoint_result="310 to 580 ng/mL"
compound="Cn1c(-c2ccccc2)c(/C=C/C(=O)N2CCC(n3c(=O)[nH]c4ccccc43)CC2)c2cccnc21 [Example 29, hydrochloride]" endpoint_result="170 to 710 ng/mL"
compound="Cn1c(-c2ccccc2)c(/C=C/C(=O)N2CCc3ccccc3C2)c2cccnc21 [Example 104, hydrochloride]" endpoint_result="25 to 32 ng/mL"

* * *

Test system: collagen production induced by TGF-β (NHDF cells)
PROTOCOL_NOTES: Inhibitory effect on collagen production induced by TGF-β, [3H] proline uptake (NHDF cells)
Format: cell-based, human
CONDITION_SUMMARY: Homo sapiens, NHDF, 3 μM, TGF-β1 3 ng/ml
Method: As an index of collagen production, the uptake of [^3H] proline was measured. Using a 96-well microplate, normal human skin derived fibroblast (NHDF, 10^4/well) or human embryonic lung fibroblast (TIG-3, 10^4/well) were cultured in a 10% fetal calf serum (FCS)-containing Dulbecco's modified Eagle medium (DMEM) for one day. […]
Structures can show the parent of a compound that is named as a salt.
# inhibition at 3 µM per record follows
ENDPOINT_LABEL: inhibition at 3 µM

molecule="CCOC(=O)C1CCCC1NC(=O)/C=C/c1c(-c2ccccc2)n(C)c2ncccc12 (stereo not shown)" tested_target="collagen production induced by TGF-β (NHDF cells)" endpoint_result=86%
molecule=Cn1c(-c2ccc3c(c2)OCO3)c(/C=C/C(=O)N(CCCCO)Cc2ccccc2)c2ccccc21 tested_target="collagen production induced by TGF-β (NHDF cells)" endpoint_result=76%
molecule="Cc1cnc2c(c1)c(C(=O)N1CCN(c3cnc(C(=O)NCCc4scnc4C)cn3)CC1)c(-c1ccccc1)n2C [Example 148, trihydrochloride]" tested_target="collagen production induced by TGF-β (NHDF cells)" endpoint_result=53%
molecule="Cc1ncsc1CCNC(=O)c1cnc(N2CCN(C(=O)c3c(-c4ccccc4)n(C)c4ccc(F)cc34)CC2)cn1 [Example 147, dihydrochloride]" tested_target="collagen production induced by TGF-β (NHDF cells)" endpoint_result=59%
molecule=COC(=O)c1ccc(-c2c(/C=C/C(=O)N3CCc4cc(OC)c(OC)cc4C3)c3cc(C)ccc3n2C)cc1 tested_target="collagen production induced by TGF-β (NHDF cells)" endpoint_result=130%
molecule="COc1cc2c(cc1OC)C(C)N(C(=O)/C=C/c1c(-c3ccccc3)n(C)c3ncccc13)CC2 (stereo not shown) [Example 3, hydrochloride]" tested_target="collagen production induced by TGF-β (NHDF cells)" endpoint_result=105%
molecule="COc1cc2c(cc1OC)CN(C(=O)/C=C/c1c(-c3ccccc3)n(C)c3nccnc13)CC2 [Example 128, hydrochloride]" tested_target="collagen production induced by TGF-β (NHDF cells)" endpoint_result=76%

* * *

inhibition at 3 µM values by entry
Tested on: collagen production induced by TGF-β (NHDF cells)
PROTOCOL_NOTES: Inhibitory effect on collagen production induced by TGF-β, [3H] proline uptake (NHDF cells)
Format: cell-based, human
CONDITION_SUMMARY: Homo sapiens, NHDF, 3 μM, TGF-β1 3 ng/ml
Procedure: As an index of collagen production, the uptake of [^3H] proline was measured. Using a 96-well microplate, normal human skin derived fibroblast (NHDF, 10^4/well) or human embryonic lung fibroblast (TIG-3, 10^4/well) were cultured in a 10% fetal calf serum (FCS)-containing Dulbecco's modified Eagle medium (DMEM) for one day. […]
Counter-ions that a name gives are not always drawn.
ENDPOINT_LABEL: inhibition at 3 µM (%)

compound=COc1ccc(CNC(=O)/C=C/c2c(-c3ccccc3)n(C)c3ccccc23)cc1 tested_target="collagen production induced by TGF-β (NHDF cells)" endpoint_result=61
compound=COc1ccc(N2CCN(C(=O)/C=C/c3c(-c4ccccc4)n(C)c4ncccc34)CC2)cc1 tested_target="collagen production induced by TGF-β (NHDF cells)" endpoint_result=92
compound="COc1cc2c(cc1OC)CN(C(=O)/C=C/c1c(-c3ccccc3)n(C)c3cccnc13)CC2 [Example 136, hydrochloride]" tested_target="collagen production induced by TGF-β (NHDF cells)" endpoint_result=111
compound="CO[C@H]1Cc2ccccc2[C@H]1NC(=O)/C=C/c1c(-c2ccccc2)n(C)c2ncccc12 [Example 4, hydrochloride]" tested_target="collagen production induced by TGF-β (NHDF cells)" endpoint_result=70
compound="CN(CCC(O)c1ccccc1)C(=O)/C=C/c1c(-c2ccc(F)cc2)n(C)c2ccccc12 (stereo not drawn)" tested_target="collagen production induced by TGF-β (NHDF cells)" endpoint_result=66
compound="CCOC(=O)C1CCCCC1NC(=O)c1cnc(N2CCN(C(=O)c3c(-c4ccccc4)n(C)c4ccc(C)cc34)CC2)cn1 (stereo not drawn)" tested_target="collagen production induced by TGF-β (NHDF cells)" endpoint_result=78
compound=CC(=O)OCCN(Cc1ccccc1)C(=O)c1cnc(N2CCN(C(=O)c3c(-c4ccccc4)n(C)c4ccc(C)cc34)CC2)cn1 tested_target="collagen production induced by TGF-β (NHDF cells)" endpoint_result=91
compound="Cc1ncsc1CCNC(=O)c1cnc(N2CCN(C(=O)c3c(-c4ccccc4)n(C)c4ncccc34)CC2)cn1 [Example 27, dihydrochloride]" tested_target="collagen production induced by TGF-β (NHDF cells)" endpoint_result=35
compound=COc1ccc(CCN(C)C(=O)/C=C/c2c(-c3ccc4c(c3)OCO4)n(C)c3ccccc23)cc1OC tested_target="collagen production induced by TGF-β (NHDF cells)" endpoint_result=84
compound="Cc1ccc2c(c1)c(C(=O)N1CCN(c3cnc(C(=O)NCCc4ccc(O)cc4)cn3)CC1)c(-c1ccccc1)n2C [Example 145, hydrochloride]" tested_target="collagen production induced by TGF-β (NHDF cells)" endpoint_result=64
compound=COC(=O)c1ccc(-c2c(/C=C/C(=O)N(C)C3CCN(C)CC3)c3cc(C)ccc3n2C)cc1 tested_target="collagen production induced by TGF-β (NHDF cells)" endpoint_result=104
compound="COc1cc2c(cc1OC)CN(C(=O)/C=C/c1c(-c3ccc(F)cc3)n(C)c3ncccc13)CC2 [Example 140, hydrochloride]" tested_target="collagen production induced by TGF-β (NHDF cells)" endpoint_result=171
